System: LXFL 529
Assay: NCI tumour cell line growth inhibition, 48 h
Results with a measured potency or affinity are listed apart. These assays gave more results; the selection is not random.
Listed here: items and their measured GI50.
State the answer as a number, implicitly in µM.

Field: example entries. Status: answers known.
substance | quantity measured | unit descriptor | measured
[Bis(aminomethyl)tetramethylenesilane]tetrachloropaltinum(IV), CHEMBL2146189 | GI50 | µM | 12.2
[Bis(aminomethyl)pentamethylenesilane]tetrachloropaltinum(IV), CHEMBL2146204 | GI50 | µM | 4.97
cis-Bis[[(trimethylsilyl)methyl]amino]tetrachloroplatinum(IV), CHEMBL2146191 | GI50 | µM | 2.15
CISPLATIN, CHEMBL11359 | GI50 | µM | 4.83
[Bis(aminomethyl)diethylsilane]tetrachloroplatinum(IV), CHEMBL2146203 | GI50 | µM | 4.34
mu-(1,7-nanodiamine-N,N')bis-(cis-aminedichloroplatimum (II)), CHEMBL2146215 | GI50 | µM | 46.2

Please turn your attention to the following entry.
Q) Which value of GI50 has been reported for [Bis(aminomethyl)tetramethylenesilane]dichloropaltinum(II), CHEMBL2146205 in the records?
A) 27.4
